test system: SK-MEL-2; test: Cytotoxicity against human SK-MEL-2 cells assessed as cell growth at 10 uM after 24 hrs by SRB assay; format: functional; settings: SK-MEL-2, 24 h, read-out: Activity

- compound.structure: "COc1cc(OC)cc(C(=O)Nc2cc(-c3cccnc3)nc(NCCCN3CCOCC3)n2)c1"
  target.system: "SK-MEL-2"
  growth at 10 µM: "84.1%"
- compound.structure: "Cc1cc(Cl)ccc1C(=O)Nc1cc(-c2cccnc2)nc(NCCCN2CCOCC2)n1"
  target.system: "SK-MEL-2"
  growth at 10 µM: "106%"
- compound.structure: "O=C(Nc1cc(-c2cccnc2)nc(NCCCN2CCOCC2)n1)c1ccc(F)cc1Cl"
  target.system: "SK-MEL-2"
  growth at 10 µM: "91.3%"
- compound.structure: "O=C(Nc1cc(-c2cccnc2)nc(NCCCN2CCOCC2)n1)c1cc(Br)cc(C(F)(F)F)c1"
  target.system: "SK-MEL-2"
  growth at 10 µM: "81.3%"
- compound.structure: "COCCCNc1nc(NC(=O)c2cc(OC)cc(OC)c2)cc(-c2cccnc2)n1"
  target.system: "SK-MEL-2"
  growth at 10 µM: "78.8%"
- compound.structure: "COCCCNc1nc(NC(=O)c2ccc(Cl)cc2C)cc(-c2cccnc2)n1"
  target.system: "SK-MEL-2"
  growth at 10 µM: "107%"
- compound.structure: "COCCCNc1nc(NC(=O)c2cc(Br)cc(C(F)(F)F)c2)cc(-c2cccnc2)n1"
  target.system: "SK-MEL-2"
  growth at 10 µM: "80.6%"

----------
system: HT-29; test: Cytotoxicity against human HT-29 cells assessed as cell growth at 10 uM after 24 hrs by SRB assay; assay type: functional; conditions: HT-29, 24 h, read-out: Activity
Please enter t where growth at 10 µM is greater than or equal to 90%, and f where it is lower.

- compound.structure: "COCCCNc1nc(NC(=O)c2cc(OC)cc(OC)c2)cc(-c2cccnc2)n1"
  target.system: "HT-29"
  qualitative.label: "t"
- compound.structure: "O=C(Nc1cc(-c2cccnc2)nc(NCCCN2CCOCC2)n1)c1cc(Br)cc(C(F)(F)F)c1"
  target.system: "HT-29"
  qualitative.label: "f"
- compound.structure: "Cc1cc(Cl)ccc1C(=O)Nc1cc(-c2cccnc2)nc(NCCCN2CCOCC2)n1"
  target.system: "HT-29"
  qualitative.label: "t"
- compound.structure: "COc1cc(OC)cc(C(=O)Nc2cc(-c3cccnc3)nc(NCCCN3CCOCC3)n2)c1"
  target.system: "HT-29"
  qualitative.label: "f"
- compound.structure: "COCCCNc1nc(NC(=O)c2ccc(Cl)cc2C)cc(-c2cccnc2)n1"
  target.system: "HT-29"
  qualitative.label: "t"
- compound.structure: "O=C(Nc1cc(-c2cccnc2)nc(NCCCN2CCOCC2)n1)c1ccc(F)cc1Cl"
  target.system: "HT-29"
  qualitative.label: "f"

----------
test system: MDA-MB-231; experiment: Cytotoxicity against human MDA-MB-231 cells assessed as cell growth at 10 uM after 24 hrs by SRB assay; assay type: functional; settings: MDA-MB-231, 24 h, read-out: Activity
Catalogue of growth at 10 µM readings, one per entry.

- compound.structure: "COc1cc(OC)cc(C(=O)Nc2cc(-c3cccnc3)nc(NCCCN3CCOCC3)n2)c1"
  target.system: "MDA-MB-231"
  growth at 10 µM [%]: 79.6
- compound.structure: "O=C(Nc1cc(-c2cccnc2)nc(NCCCN2CCOCC2)n1)c1ccc(F)cc1Cl"
  target.system: "MDA-MB-231"
  growth at 10 µM [%]: 93.2
- compound.structure: "O=C(Nc1cc(-c2cccnc2)nc(NCCCN2CCOCC2)n1)c1cc(Br)cc(C(F)(F)F)c1"
  target.system: "MDA-MB-231"
  growth at 10 µM [%]: 32.7
- compound.structure: "COCCCNc1nc(NC(=O)c2ccc(Cl)cc2C)cc(-c2cccnc2)n1"
  target.system: "MDA-MB-231"
  growth at 10 µM [%]: 94
